Experiment Notes: Effect of a single 2 g dose of SYM-1219 on the plasma pharmacokinetics of EE2 and NET in healthy female subjects
Type: in vivo, human
Test Settings: female, human, plasma, Group B1 Period 1: EE2/NET alone; read-out: NET t1/2, Mean (converted)
Description: Methods: Fifty-four (54) healthy female subjects, ages 18-65, received EE2/NET alone and in combination, where SYM-1219+EE2/NET were co-administered on Day 1 (Group B1; N=27) or SYM-1219 on Day 1 and EE2/NET on Day 2 (Group B2; N=27). Serial blood samples were drawn to measure plasma concentrations of EE2/NET. […] Safety was evaluated by recording of adverse events, vital signs, ECGs and standard laboratory tests.
Measure Name: half-life

State, in one line, measured half-life of "C#C[C@]1(O)CC[C@H]2[C@@H]3CCC4=CC(=O)CC[C@@H]4[C@H]3CC[C@@]21C" 576 min

---

Experiment Notes: Effect of a single 2 g dose of SYM-1219 on the plasma pharmacokinetics of EE2 and NET in healthy female subjects
Type: in vivo, human
Test Settings: female, human, plasma, Group B1 Period 2: EE2/NET followed by SYM-1219 2 grams on Day 1; read-out: NET t1/2, Mean (converted)
Measure Name: half-life (min)
Your answer is read as min, so omit the unit and give the number.

Note half-life for the molecule shown: "C#C[C@]1(O)CC[C@H]2[C@@H]3CCC4=CC(=O)CC[C@@H]4[C@H]3CC[C@@]21C" 576

---

Experiment Notes: Effect of a single 2 g dose of SYM-1219 on the plasma pharmacokinetics of EE2 and NET in healthy female subjects
Format: in vivo, human
Test Settings: female, human, plasma, Group B2 Period 2: SYM-1219 2 grams on Day 1, EE2/NET on Day 2; read-out: NET AUC0-t, Median
Measure Name: AUC(0-t) (ng·h/mL)
# number only, unit ng·h/mL dropped from output

Report AUC(0-t), nothing else, for this compound: C#C[C@]1(O)CC[C@H]2[C@@H]3CCC4=CC(=O)CC[C@@H]4[C@H]3CC[C@@]21C [NET, norethindrone] 44.5

---

Experiment Notes: Effect of a single 2 g dose of SYM-1219 on the plasma pharmacokinetics of EE2 and NET in healthy female subjects
Type: in vivo, human
Test Settings: female, human, plasma, Group B1 Period 1: EE2/NET alone; read-out: EE2 Cmax, Mean
Measure Name: Cmax
Write the numeric value and append its unit.

Given "C#C[C@]1(O)CC[C@H]2[C@@H]3CCc4cc(O)ccc4[C@H]3CC[C@@]21C" , respond with its Cmax. 0.0806 ng/mL

---

Experiment Notes: Single oral dose pharmacokinetics (plasma and urine) of SYM-1219 microgranule formulation in fasted healthy female subjects
Test Settings: female, human, plasma, po, 1 g
Measure Name: Tmax
Give the value; after it, write the unit.

Please report Tmax for the following compound: Cc1ncc([N+](=O)[O-])n1CC(C)O (stereo not shown) 3.06 h

---

Experiment Notes: Effect of a single 2 g dose of SYM-1219 on the plasma pharmacokinetics of EE2 and NET in healthy female subjects
Type: in vivo, human
Test Settings: female, human, plasma, Group B2 Period 1: EE2/NET alone; read-out: EE2 AUC0-t, Mean
Measure Name: AUC(0-t) (ng·h/mL)
Give the value, in units of ng·h/mL, as a plain number.

Consider the compound "C#C[C@]1(O)CC[C@H]2[C@@H]3CCc4cc(O)ccc4[C@H]3CC[C@@]21C" and give its recorded AUC(0-t). 0.68

Origin of values: patent US11684607B2
